Hello, the source for this data is patent EP1606307B1, in case you need it.

For each entry below, report its inhibition at 1 µM value.
- Target Or Test System: human estrogen receptor α (Homo sapiens)
- Construct: purchased Panvera
- Sequence (P03372 whole entry): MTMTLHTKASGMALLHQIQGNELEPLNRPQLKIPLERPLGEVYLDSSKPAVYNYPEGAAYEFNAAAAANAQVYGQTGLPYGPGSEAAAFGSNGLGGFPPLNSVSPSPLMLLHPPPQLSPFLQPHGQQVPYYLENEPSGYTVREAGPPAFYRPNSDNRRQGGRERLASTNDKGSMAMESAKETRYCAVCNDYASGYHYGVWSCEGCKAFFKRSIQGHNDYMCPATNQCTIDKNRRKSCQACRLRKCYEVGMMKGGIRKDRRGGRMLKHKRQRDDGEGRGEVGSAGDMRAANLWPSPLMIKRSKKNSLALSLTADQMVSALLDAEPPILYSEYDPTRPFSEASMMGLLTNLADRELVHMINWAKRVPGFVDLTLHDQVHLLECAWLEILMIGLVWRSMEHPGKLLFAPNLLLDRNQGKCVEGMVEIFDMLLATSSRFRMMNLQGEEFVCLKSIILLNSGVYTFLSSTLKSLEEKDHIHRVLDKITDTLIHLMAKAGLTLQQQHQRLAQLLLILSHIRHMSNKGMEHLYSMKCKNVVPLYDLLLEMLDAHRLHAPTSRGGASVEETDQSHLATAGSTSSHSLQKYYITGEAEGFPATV
- Experimental Protocol: Estrogen Receptor α Flash Plate Assay (binding of radiolabeled estrogen)
- Conditions: read-out: ERα at 1µM % Inhibition
- Procedure: This assay monitors binding of radiolabeled estrogen to the estrogen receptor. It was performed on a BioMek 2000 (Beckman). Plates were read in a scintillation counter (Packard TopCount), with decreased counts an indication of binding of a compound to the receptor. […] On day two, each well was washed three times with 200 µL PBS, pH 7.2, at room temperature. […] The wells were then counted for 1 min in a TopCount scintillation counter (Packard).
Express the result in % but write the number alone.

Prompt: Reported inhibition at 1 µM for C[C@]12CCC3c4ccc5c(ccn5S(C)(=O)=O)c4CCC3C1CCC2=O (some centres unmarked) : what is it?
Completion: 45

Prompt: Suppose we examine the molecule CSc1c[nH]c2ccc3c(c12)CCC1C3CC[C@]2(C)C(=O)CCC12 (some centres unmarked) ; what inhibition at 1 µM value has been reported?
Completion: 81

Prompt: Need inhibition at 1 µM, item C[C@]12CCC3c4cc5ccn(S(C)(=O)=O)c5cc4CCC3C1CCC2=O (some centres unmarked)
Completion: 11

Prompt: Which inhibition at 1 µM value is on record for CCCCC(=O)O[C@H]1CCC2C3CCc4cc5[nH]ccc5cc4C3CC[C@@]21C (some centres unmarked) ?
Completion: 95

Prompt: What inhibition at 1 µM value was documented for this molecule, C[C@]12CCC3c4cc5ccn(S(C)(=O)=O)c5cc4CCC3C1CC[C@@H]2O (some centres unmarked) ?
Completion: 19
